From: ChEMBL document CHEMBL5442663

procedure summary: Kinetic solubility of compound by measuring concentration at pH 7.4 in saturated PBS buffer by UV LCMS/MS using calibration curves. The assay has been performed by Enamine biological services, Bienta Ltd.The protocol is publicly available: dx.doi.org/10.17504/protocols.io.j8nlk8y41l5r/v1
Type: physicochemical
protocol conditions: PBS buffer
readout kind: solubility kinetic (µM)

[[record]]
molecule = "CC(C)[C@H](CO)Nc1ncnc2[nH]ccc12"
uom = "µM"
measurement_qualifier = "≥"
reported_result = 400

[[record]]
molecule = "CNC(=O)c1cc2c(N[C@@H](c3ccc4c(c3)OCCO4)C(C)C)ncnc2[nH]1"
uom = "µM"
measurement_qualifier = "="
reported_result = 380

[[record]]
molecule = "C[C@@H](C(=O)O)[C@@H](NC(=O)c1ncnc2[nH]ccc12)c1ccc(Br)cc1"
uom = "µM"
measurement_qualifier = "="
reported_result = 386

[[record]]
molecule = "COc1ccc([C@@H](NC(=O)c2[nH]cnc3nccc2-3)C(C)c2nnn[nH]2)cc1 (some centres not stated)"
uom = "µM"
measurement_qualifier = "≥"
reported_result = 400

[[record]]
molecule = "CC(C)(C)[C@H](Nc1ncnc2[nH]c(-c3cnn(CC(N)=O)c3)cc12)c1ccc2c(n1)OCCO2"
uom = "µM"
measurement_qualifier = "="
reported_result = 372

[[record]]
molecule = "CNC(=O)Cn1cc(-c2cc3c(N[C@@H](c4ccc5c(c4)OCCO5)C(C)C)ncnc3[nH]2)cn1"
uom = "µM"
measurement_qualifier = "="
reported_result = 289

[[record]]
molecule = "CNC(=O)c1c[nH]c2ncnc(N[C@H](c3ccc4c(c3)S(=O)(=O)CCC4)C(C)C)c12"
uom = "µM"
measurement_qualifier = "="
reported_result = 336

